These entries and their values trace back to patent US6376673B1.

Target: dopamine transporter (Rattus norvegicus, UniProt P23977)
Sequence (P23977 whole entry): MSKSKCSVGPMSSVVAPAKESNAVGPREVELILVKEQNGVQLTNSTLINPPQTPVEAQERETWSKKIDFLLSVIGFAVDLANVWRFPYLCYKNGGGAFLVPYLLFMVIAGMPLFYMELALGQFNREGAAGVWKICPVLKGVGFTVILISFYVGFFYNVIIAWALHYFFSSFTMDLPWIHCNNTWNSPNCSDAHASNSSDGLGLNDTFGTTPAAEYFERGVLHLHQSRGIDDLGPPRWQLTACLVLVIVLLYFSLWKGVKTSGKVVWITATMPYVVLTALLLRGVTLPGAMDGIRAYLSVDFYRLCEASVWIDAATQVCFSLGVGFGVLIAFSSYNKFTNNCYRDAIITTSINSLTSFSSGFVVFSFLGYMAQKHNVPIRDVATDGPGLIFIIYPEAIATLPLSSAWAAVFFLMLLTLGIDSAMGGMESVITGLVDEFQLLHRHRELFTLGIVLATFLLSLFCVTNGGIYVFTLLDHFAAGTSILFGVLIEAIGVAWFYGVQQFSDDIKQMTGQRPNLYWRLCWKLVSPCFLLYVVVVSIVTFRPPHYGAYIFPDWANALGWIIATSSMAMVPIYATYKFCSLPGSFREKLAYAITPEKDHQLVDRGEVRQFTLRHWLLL
pIC50: −log10 of the molar value.
Readout type: pIC50

>>> data_value("CON=CC1CN(C)CCC1c1ccc(Cl)c(Cl)c1 (stereo not shown)")
7.80
